target: MALAT1; details: ASO, A431, 0.005 µM
After the bases stand the sugars from the 5' end (letter, count) and the backbone: PS all phosphorothioate, else s phosphorothioate and o phosphodiester by linkage. Methylation of C is not given here. k = constrained ethyl (cEt); d = 2'-deoxy (DNA)

# RECORD_SEQUENCE, UNIT_LABEL, target mRNA inhibition
data = [
    ("CAAGACCAAACTGCAG (sugars k3 d10 k3, PS)", "%", -28),
    ("TCTCGGGCTGCAGGCT (sugars k3 d10 k3, PS)", "%", 20),
    ("TGACCTTAGGATAATA (sugars k3 d10 k3, PS)", "%", 62),
    ("AGTAACCTATTGACTA (sugars k3 d10 k3, PS)", "%", -16),
    ("CTACACAATTTACATC (sugars k3 d10 k3, PS)", "%", 22),
    ("TAAAGTCTGATTAAGG (sugars k3 d10 k3, PS)", "%", 4),
    ("CCCAAAAGCCCTCTCA (sugars k3 d10 k3, PS)", "%", 12),
    ("AGCTGAACTATCACAA (sugars k3 d10 k3, PS)", "%", 5),
    ("CTGGCATGCTGGTCTA (sugars k3 d10 k3, PS)", "%", 19),
    ("ACCTGGAATGGCCAGC (sugars k3 d10 k3, PS)", "%", 21),
    ("TAACGAAGAGATACCT (sugars k3 d10 k3, PS)", "%", 22),
    ("ACTAAGCTACTATATT (sugars k3 d10 k3, PS)", "%", 39),
    ("TCCAAGCTACTGGCTG (sugars k3 d10 k3, PS)", "%", 20),
    ("GTATGAGCTTCAGACC (sugars k3 d10 k3, PS)", "%", -6),
    ("CGTGTGGAAAGATTTG (sugars k3 d10 k3, PS)", "%", 0),
    ("AGCCAAGCCGCCTGCT (sugars k3 d10 k3, PS)", "%", 20),
    ("CAGCACAGCGGTACAC (sugars k3 d10 k3, PS)", "%", 7),
    ("CCTGTTAAGACCATCC (sugars k3 d10 k3, PS)", "%", 40),
    ("CCAAACAACTTTTGCA (sugars k3 d10 k3, PS)", "%", 44),
    ("TCCAAAAGAGAACCAC (sugars k3 d10 k3, PS)", "%", 21),
    ("TTATCTAAATACCACC (sugars k3 d10 k3, PS)", "%", 2),
    ("CAACTGGAAGCTCCTT (sugars k3 d10 k3, PS)", "%", 23),
    ("AGTAAGCCCCACCCCC (sugars k3 d10 k3, PS)", "%", 29),
    ("ATCCTCTACGCACAAC (sugars k3 d10 k3, PS)", "%", 42),
    ("CTTTCATAGAGCCTTC (sugars k3 d10 k3, PS)", "%", 43),
    ("GCCAAGCCAAGCCGCC (sugars k3 d10 k3, PS)", "%", 14),
    ("CAACAGCACAGCGGTA (sugars k3 d10 k3, PS)", "%", -5),
    ("CTTCCCGTACTTCTGT (sugars k3 d10 k3, PS)", "%", 43),
    ("CCGGAAATCGGCCTAC (sugars k3 d10 k3, PS)", "%", 20),
    ("TACACTCACTAGAACA (sugars k3 d10 k3, PS)", "%", 3),
    ("ATTACCTAAACCCACC (sugars k3 d10 k3, PS)", "%", -10),
    ("CCCCACGGCCCGCACG (sugars k3 d10 k3, PS)", "%", -9),
    ("TCATACTGCCAGGCTG (sugars k3 d10 k3, PS)", "%", 29),
    ("TTACTTCCGTTACGAA (sugars k3 d10 k3, PS)", "%", -8),
    ("TCACAAAACCCCCGGA (sugars k3 d10 k3, PS)", "%", 16),
    ("TAAGTTGGTAATTACT (sugars k3 d10 k3, PS)", "%", 17),
    ("GAACAACTCGCATCAC (sugars k3 d10 k3, PS)", "%", 15),
    ("TGATCATAATCTCCCA (sugars k3 d10 k3, PS)", "%", 43),
    ("CACCTGGGTCAGCTGT (sugars k3 d10 k3, PS)", "%", 25),
    ("GCTCTATACTTTGAAG (sugars k3 d10 k3, PS)", "%", 51),
    ("TTAAGACCAAGGGAGG (sugars k3 d10 k3, PS)", "%", 29),
    ("CAAATCGCCATGGAAA (sugars k3 d10 k3, PS)", "%", 14),
    ("GAAGAATCCCCCCCAA (sugars k3 d10 k3, PS)", "%", 11),
    ("CCACTCTAAGATTGTA (sugars k3 d10 k3, PS)", "%", 40),
    ("GCACTCATATGCAATT (sugars k3 d10 k3, PS)", "%", 6),
    ("CGCCGCAGGGATTTGA (sugars k3 d10 k3, PS)", "%", 19),
    ("TCCTGCATGTAAGAAT (sugars k3 d10 k3, PS)", "%", 15),
]
